# systemTested: thrombin (alpha-thrombin) (Homo sapiens, UniProt P00734;P00734 P00734:315-363,P00734:364-622)
# assayInfo: filter; 10 nM thrombin
Consider the following binders and their measured binding signal readings.
measuredQuantity: binding signal (% bound)

binder: TCCCTATCGAGCTGTGGTAGTATTCTGGTTTGGGTGGCTGAGGATCGATC (ssDNA) [AMX(398)_A7]
measuredQuantity: binding signal
measuredValue: 26.5
--
binder: TCCCATTGATCTGTGGTGGTTTTGTGGTTTGGGTGGCTGAGGATCGATC (ssDNA) [AMX(398)_A2]
measuredQuantity: binding signal
measuredValue: 26.7
--
binder: TCCCAATCGAGCCGGGGTTTGTTTGTTCTGGGTGGCTGAGGATCGATC (ssDNA) [AMX(398)_B1]
measuredQuantity: binding signal
measuredValue: 31.3
--
binder: TCCCATCGATTTGTCCTCAGAGGTTGGCGTGGGTGGCTGAGGATCGATC (ssDNA) [AMX(399)_B12]
measuredQuantity: binding signal
measuredValue: 24.2
--
binder: TCCCGTTCGGTCCGTATACTGGTGGTGGTTGGGTGGCTGAGGATCGATC (ssDNA) [AMX(399)_F4]
measuredQuantity: binding signal
measuredValue: 28.1
--
binder: TCCCGGTTGTCGATTCTGGTATTGTTGGGCTGGGTGGCTGAGGATCGATC (ssDNA) [AMX(399)_H7]
measuredQuantity: binding signal
measuredValue: 38.1
--
binder: TCCCTGCAATCGGTGCTCGAGAGGTTGGGTGGGTGGCTGAGGATCGATC (ssDNA) [AMX(398)_C12]
measuredQuantity: binding signal
measuredValue: 22.8
--
binder: TCCCATCGATCAGTGGTGGCTTGGCTGGTTTGGGTGGCTGAGGATCGATC (ssDNA) [AMX(399)_G6]
measuredQuantity: binding signal
measuredValue: 39.7
--
binder: TCCCGGAGATCTGAGGTGTTTTATTGGTTTGGGTGGCTGAGGATCGATC (ssDNA) [AMX(399)_H6]
measuredQuantity: binding signal
measuredValue: 8.48
--
binder: TCCCTCGATCTTGGGGTACTATAGTGGTGTGGGTGGCTGAGGATCGATC (ssDNA) [AMX(398)_B10]
measuredQuantity: binding signal
measuredValue: 26.8
--
binder: TCCCATCGAACCTCGAGGGTATTGTTGGTTTGGGTGGCTGAGGATCGATC (ssDNA) [AMX(399)_H1]
measuredQuantity: binding signal
measuredValue: 21.2
--
binder: TCCCTGGTATCGTATCCAAAGGGGTGGTGTGGGTGGCTGAGGATCGATC (ssDNA) [AMX(399)_H8]
measuredQuantity: binding signal
measuredValue: 23.3
--
binder: TCCCGATTATCCGTTGGTATTGTTGGTCTGGGTGGCTGAGGATCGATC (ssDNA) [AMX(398)_B12]
measuredQuantity: binding signal
measuredValue: 20.1
--
binder: TTCCTGTCGATAAGGGGTATTATAGTGGTGTGGGTGGCTGAGGATCGATC (ssDNA) [AMX(399)_C9]
measuredQuantity: binding signal
measuredValue: 11.2
--
binder: TCCCGATCGGACGTGGTGGGTTACTTCTGGGTGGCTGAGGATCGATC (ssDNA) [AMX(398)_E5]
measuredQuantity: binding signal
measuredValue: 25.6
--
binder: TCCCGTCGAGCCGGGGTATGATTATGGGTGGGGTGGCTGAGGATCGATC (ssDNA) [AMX(398)_A9]
measuredQuantity: binding signal
measuredValue: 28.3
--
binder: TCCCAACGATCTGTGGTTTTTTTGTTCTGGGTGGCTGAGGATCGATC (ssDNA) [AMX(398)_C1]
measuredQuantity: binding signal
measuredValue: 35.8
--
binder: TCCCATCGAACCTCGAGGGTATTGTTGGCTTGGGTGGCTGAGGATCGATC (ssDNA) [AMX(399)_G3]
measuredQuantity: binding signal
measuredValue: 20.8
--
binder: TCCTGTCGATCCCTACGGGTAGTGTTGGTTTGGGTGGCTGAGGATCGATC (ssDNA) [AMX(399)_B9]
measuredQuantity: binding signal
measuredValue: 14.7
--
binder: TCCTTGTCGAGCCTTGGGGTAGTGTTGGTTTGGGTGGCTGAGGATCGATC (ssDNA) [AMX(399)_F3]
measuredQuantity: binding signal
measuredValue: 9.8
--
binder: TCCCTGGAGATCCGGGGTAGTATACTGGTTTGGGTGGCTGAGGATCGATC (ssDNA) [AMX(398)_A12]
measuredQuantity: binding signal
measuredValue: 35.4
--
binder: TCCCAGCGGTCCTAATGGGTAGTGTTGGTTTGGGTGGCTGAGGATCGATC (ssDNA) [AMX(398)_D5]
measuredQuantity: binding signal
measuredValue: 12
--
binder: TCCCAAGATCGATGCTGGTAGTGTTTTCTGGGTGGCTGAGGATCGATC (ssDNA) [AMX(399)_F6]
measuredQuantity: binding signal
measuredValue: 10
